Reference for the values: patent US20100093086A1

Assay system: T1, GST-MDMX containing full-length human MDMX (human, UniProt O15151 1-490)
T1 construct: mature; Expressed in E. coli and purified on glutathione-agarose; not shown: GST tag
T1 sequence (looked up): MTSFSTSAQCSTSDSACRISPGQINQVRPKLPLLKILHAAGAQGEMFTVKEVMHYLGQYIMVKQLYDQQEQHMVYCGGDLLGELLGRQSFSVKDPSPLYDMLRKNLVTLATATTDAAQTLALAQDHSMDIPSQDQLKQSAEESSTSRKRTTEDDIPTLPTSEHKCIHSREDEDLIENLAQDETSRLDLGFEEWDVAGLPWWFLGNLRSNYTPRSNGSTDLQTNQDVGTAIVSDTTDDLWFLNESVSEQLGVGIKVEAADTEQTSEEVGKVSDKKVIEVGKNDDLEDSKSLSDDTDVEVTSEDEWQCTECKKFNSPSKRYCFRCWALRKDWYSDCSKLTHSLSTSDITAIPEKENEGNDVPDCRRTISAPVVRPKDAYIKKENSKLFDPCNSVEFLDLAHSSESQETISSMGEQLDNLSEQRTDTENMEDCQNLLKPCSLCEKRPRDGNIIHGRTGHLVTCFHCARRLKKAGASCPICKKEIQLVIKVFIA
Method description: competition ELISA: peptide + GST-MDMX on plated His6-p53
Bridges are numbered along the chain shown (N, C = ends). L3 = not defined here
Readings of IC50 for the listed binders

Binder	Unit descriptor	IC50
Ac-LTFXHYWXRLTS-NH2 (bridge 4-8 via L3; not fully specified (residues 4, 8); printed as LTFαHYWβRLTS, Stapled peptide) [sPDI-8]	nM	231
Ac-TSFXQYWNLLXP-NH2 (bridge 4-11 via L3; not fully specified (residues 4, 11); printed as TSFαQYWNLLβP; also: pyrazoline cross-linker L3 between α and β, Stapled peptide) [sPMI-3]	nM	1490
